Hello, the source for this data is patent US4487924A, in case you need it.

test system: P. inconstans GN1554 (AAC(2')); assay: Antibiotic activity (MIC), Table 1; type: cell-based; conditions: Providencia alcalifaciens, GN1554, P. inconstans GN1554 (AAC(2')); read-out: MIC
assay.metric: MIC (µg/mL)
Numbers only; they are read as µg/mL.

Below are worked cases with known answers.
- CNCC1CCC(NC(=O)C[C@@H](N)CCCN)C(OC2C(N)CC(OC)C(NC)C2O)O1 (stereo partly drawn) [2'-N-β-Lysyl KA-7038VI, 2'-N-(L-β-lysyl)-KA-7038VI]: 0.78
- CNC1C(OC)CC(N)C(OC2OC(C(C)N)CCC2NC(=O)C[C@@H](N)CCCN)C1O (stereo partly shown): 0.2

Switching to the query record.
Give the measured MIC of CNC1C(O)CC(N)C(OC2OC(C(C)N)CCC2NC(=O)C[C@@H](N)CCCN)C1O (stereo partly shown) .
1.56

----------
Catalogue of molecules with associated MIC
tested on: S. faecalis Imanari; test: Antibiotic activity (MIC), Table 1; format: cell-based; details: Enterococcus faecalis, read-out: MIC
Numbers only; they are read as µg/mL.

Below are worked cases with known answers.
• CNC1C(OC)CC(N)C(OC2OC(C(C)N)CCC2NC(=O)C[C@@H](N)CCCN)C1O (stereo partly shown) = 1.56
• CNC1C(O)CC(N)C(OC2OC(C(C)N)CCC2NC(=O)C[C@@H](N)CCCN)C1O (stereo partly shown) = 3.13
• CNCC1CCC(N)C(OC2C(N)CC(OC)C(NC)C2O)O1 (stereo not shown) [KA-7038VI, reference compound] = 100

Switching to the query record.
Give the measured MIC of CNCC1CCC(NC(=O)C[C@@H](N)CCCN)C(OC2C(N)CC(OC)C(NC)C2O)O1 (stereo partly drawn) [2'-N-β-Lysyl KA-7038VI, 2'-N-(L-β-lysyl)-KA-7038VI] .
1.56

----------
system: K. pneumoniae PCI 602; experiment: Antibiotic activity (MIC), Table 1; type: cell-based; conditions: Klebsiella pneumoniae, PCI602, K. pneumoniae PCI 602; read-out: MIC
assay.metric: MIC (µg/mL)
Numbers only; they are read as µg/mL.

Below are worked cases with known answers.
* CNCC1CCC(NC(=O)C[C@@H](N)CCCN)C(OC2C(N)CC(OC)C(NC)C2O)O1 (stereo partly drawn) [2'-N-β-Lysyl KA-7038VI, 2'-N-(L-β-lysyl)-KA-7038VI] | 0.78
* CNC1C(O)CC(N)C(OC2OC(C(C)N)CCC2NC(=O)C[C@@H](N)CCCN)C1O (stereo partly shown) | 0.78
* CNC1C(OC)CC(N)C(OC2OC(C(C)N)CCC2NC(=O)C[C@@H](N)CCCN)C1O (stereo partly shown) | 0.78

Switching to the query record.
Give the measured MIC of CNCC1CCC(N)C(OC2C(N)CC(OC)C(NC)C2O)O1 (stereo not shown) [KA-7038VI, reference compound] .
100

----------
test system: E. cloacae IID 977; assay: Antibiotic activity (MIC), Table 1; type: cell-based; conditions: Enterobacter cloacae, IID977, E. cloacae IID 977; read-out: MIC
assay.metric: MIC (µg/mL)
Numbers only; they are read as µg/mL.

• CNCC1CCC(NC(=O)C[C@@H](N)CCCN)C(OC2C(N)CC(OC)C(NC)C2O)O1 (stereo partly drawn) [2'-N-β-Lysyl KA-7038VI, 2'-N-(L-β-lysyl)-KA-7038VI] = 6.25
• CNC1C(O)CC(N)C(OC2OC(C(C)N)CCC2NC(=O)C[C@@H](N)CCCN)C1O (stereo partly drawn) [2'-N-β-Lysyl 5-de-O-Me KA-6606VIII] = 25

Switching to the query record.
Give the measured MIC of CNC1C(OC)CC(N)C(OC2OC(C(C)N)CCC2NC(=O)C[C@@H](N)CCCN)C1O (stereo partly drawn) [2'-N-β-Lysyl KA-6606VIII, 2'-N-(L-β-lysyl)-KA-6606VIII] .
3.13
